Source: patent US20230139700A1

Quick reference: log10 of koff of the listed items.
# assay-target: T1, hOX40-his (human, UniProt P43489 29-216)
# T1 construct: range 1-216; Made in HEK293; The stated range starts at residue 1 (holds the signal peptide of the entry); no cleavage site stated; not shown: his tag
# T1 sequence (looked up): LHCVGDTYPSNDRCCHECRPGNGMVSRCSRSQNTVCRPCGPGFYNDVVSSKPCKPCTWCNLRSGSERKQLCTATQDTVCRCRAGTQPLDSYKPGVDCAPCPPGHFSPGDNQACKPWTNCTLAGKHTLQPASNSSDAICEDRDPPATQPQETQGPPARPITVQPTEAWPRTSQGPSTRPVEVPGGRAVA
# measurement-protocol: BIACORE, antibody on the probe, 20 nM OX40-his
For clarity, the numbers are log10 values of koff expressed in s⁻¹.

For orientation, consider the following solved cases.
>  <binder>
11D4 (antibody, V domains shown) VH: EVQLVESGGGLVQPGGSLRLSCAASGFTFSSYSMNWVRQAPGKGLEWVSYISSSSSTIDYADSVKGRFTISRDNAKNSLYLQMNSLRDEDTAVYYCARESGWYLFDYWGQGTLVTVSS VL: DIQMTQSPSSLSASVGDRVTITCRASQGISSWLAWYQQKPEKAPKSLIYAASSLQSGVPSRFSGSGSGTDFTLTISSLQPEDFATYYCQQYNSYPPTFGGGTKVEIKR

>  <log10 of koff>
-3.34

$$$$
>  <binder>
WEST + VL (antibody, human IgG1, kappa, V domains shown) VH: QVQLEESGGGVVQPGESLRLSCAASGFTFSSYGMHWVRQAPGKGLEWVAVIWEDGSNQYYADSVKGRFTISRDNSKNTLYLQMNSLRAEDTAVYYCAKDNQDTSPDVGIDYWGQGTLVTVSS VL: DIQMTQSPSSLSASVGDTVTITCRASQNISPFLNWYQQKPGKAPKLLIYAASSLQSGVPSRFSGSGSGTDFTLTISSLQPEDFATYYCQQYNSYPLTFGGGTKVEIKR

>  <log10 of koff>
-3.15

$$$$
>  <binder>
Antibody M (antibody, human IgG1, kappa, V domains shown, also called antibody No. 12; anti-OX40 antibody (antibody M)) VH: QVQLVESGGGVVQPGESLRLSCAASGFTFSSYGMHWVRQAPGKGLEWVAVIWEDGSNQYYADSVKGRFTISRDNSKNTLYLQMNSLRAEDTAVYYCAKDNQDTSPDVGIDYWGQGTLVTVSS VL: DIQMTQSPSSLSASVGDRVTITCRASQNISPFLNWYQQKPGKAPKLLIYAAVGLQSGVPSRFSGSGSGTDFTLTISSLQPEDFATYYCQQYTDYPLTFGGGTKVEIKR

>  <log10 of koff>
-4.01

$$$$

Challenge: Entry T + VG (antibody, human IgG1, kappa, V domains shown) VH: QVQLEESGGGVVQPGESLRLSCAASGFTFSSYGMHWVRQAPGKGLEWVAVISYDGSNQYYADSVKGRFTISRDNSKNTLYLQMNSLRAEDTAVYYCAKDNQDTSPDVGIDYWGQGTLVTVSS VL: DIQMTQSPSSLSASVGDTVTITCRASQNISPFLNWYQQKPGKAPKLLIYAAVGLQSGVPSRFSGSGSGTDFTLTISSLQPEDFATYYCQQYNSYPLTFGGGTKVEIKR needs its log10 of koff filled in; supply it.
Response given: -2.88

Challenge: Entry WEST + VG (antibody, human IgG1, kappa, V domains shown) VH: QVQLEESGGGVVQPGESLRLSCAASGFTFSSYGMHWVRQAPGKGLEWVAVIWEDGSNQYYADSVKGRFTISRDNSKNTLYLQMNSLRAEDTAVYYCAKDNQDTSPDVGIDYWGQGTLVTVSS VL: DIQMTQSPSSLSASVGDTVTITCRASQNISPFLNWYQQKPGKAPKLLIYAAVGLQSGVPSRFSGSGSGTDFTLTISSLQPEDFATYYCQQYNSYPLTFGGGTKVEIKR needs its log10 of koff filled in; supply it.
Response given: -3.46

Challenge: Entry WEST + TD (antibody, human IgG1, kappa, V domains shown) VH: QVQLEESGGGVVQPGESLRLSCAASGFTFSSYGMHWVRQAPGKGLEWVAVIWEDGSNQYYADSVKGRFTISRDNSKNTLYLQMNSLRAEDTAVYYCAKDNQDTSPDVGIDYWGQGTLVTVSS VL: DIQMTQSPSSLSASVGDTVTITCRASQNISPFLNWYQQKPGKAPKLLIYAASSLQSGVPSRFSGSGSGTDFTLTISSLQPEDFATYYCQQYTDYPLTFGGGTKVEIKR needs its log10 of koff filled in; supply it.
Response given: -3.49
